src = patent US20060257938A1

assay: Probe fluorescence ratio response to arachidonic acid relative to ADIFAB2; type: binding; conditions: arachidonic acid; response relative to ADIFAB2
Outcome: yes (1) for DR/DR AA of at least 0.9; no (0) for anything lower.

1. 72T 73W 74S (protein, listed as Rattus norvegicus, PEPTIDE (1)...(131) wild-type rat intestinal fatty acid binding protein) AFDGTWKVDRNENYEKFMEKMGINVVKRKLGAHDNLKLTITQEGNKFTVKESSNFRNIDVVFELGVDFAYSTWSGTELTGTWTMEGNKLVGKFKRVDNGKELIAVREISGNELIQTYTYEGVEAKRIFKKE	yes (1)
2. 115K3, 72A (protein, listed as Rattus norvegicus, PEPTIDE (1)...(131) wild-type rat intestinal fatty acid binding protein) AFDGTWKVDRNENYEKFMEKMGINVVKRKLGAHDNLKLTITQEGNKFTVKESSNFRNIDVVFELGVDFAYSAADGTELTGTWTMEGNKLVGKFKRVDNGKELIAVREISGNELIKTYTYEGVEAKRIFKKE	yes (1)

// query Can 14T, 72A (protein, listed as Rattus norvegicus, PEPTIDE (1)...(131) wild-type rat intestinal fatty acid binding protein) AFDGTWKVDRNENTEKFMEKMGINVVKRKLGAHDNLKLTITQEGNKFTVKESSNFRNIDVVFELGVDFAYSAADGTELTGTWTMEGNKLVGKFKRVDNGKELIAVREISGNELIQTYTYEGVEAKRIFKKE be said to have DR/DR AA at or above 0.9?
// result no (0)

// query Please tell me: is the molecule 102G, 72A (protein, listed as Rattus norvegicus, PEPTIDE (1)...(131) wild-type rat intestinal fatty acid binding protein) AFDGTWKVDRNENYEKFMEKMGINVVKRKLGAHDNLKLTITQEGNKFTVKESSNFRNIDVVFELGVDFAYSAADGTELTGTWTMEGNKLVGKFKRVDNGKEGIAVREISGNELIQTYTYEGVEAKRIFKKE at or over 0.9 in terms of DR/DR AA?
// result no (0)

// query Please check the record 14M 18L 31W 73I 117G 72A (protein, listed as Rattus norvegicus, PEPTIDE (1)...(131) wild-type rat intestinal fatty acid binding protein) AFDGTWKVDRNENMEKFLEKMGINVVKRKLWAHDNLKLTITQEGNKFTVKESSNFRNIDVVFELGVDFAYSAIDGTELTGTWTMEGNKLVGKFKRVDNGKELIAVREISGNELIQTGTYEGVEAKRIFKKE and state if its DR/DR AA is at or above 0.9.
// result yes (1)

// query Is the recorded value of DR/DR AA equal to or greater than 0.9 for this molecule? 72G (protein, listed as Rattus norvegicus, PEPTIDE (1)...(131) wild-type rat intestinal fatty acid binding protein) AFDGTWKVDRNENYEKFMEKMGINVVKRKLGAHDNLKLTITQEGNKFTVKESSNFRNIDVVFELGVDFAYSGADGTELTGTWTMEGNKLVGKFKRVDNGKELIAVREISGNELIQTYTYEGVEAKRIFKKE
// result no (0)

// query DR/DR AA >= 0.9 for 14L 18L 31S 73W 117V 72A (protein, listed as Rattus norvegicus, PEPTIDE (1)...(131) wild-type rat intestinal fatty acid binding protein) AFDGTWKVDRNENLEKFLEKMGINVVKRKLSAHDNLKLTITQEGNKFTVKESSNFRNIDVVFELGVDFAYSAWDGTELTGTWTMEGNKLVGKFKRVDNGKELIAVREISGNELIQTVTYEGVEAKRIFKKE ?
// result yes (1)

// query Has 72S 73V 74V (protein, listed as Rattus norvegicus, PEPTIDE (1)...(131) wild-type rat intestinal fatty acid binding protein) AFDGTWKVDRNENYEKFMEKMGINVVKRKLGAHDNLKLTITQEGNKFTVKESSNFRNIDVVFELGVDFAYSSVVGTELTGTWTMEGNKLVGKFKRVDNGKELIAVREISGNELIQTYTYEGVEAKRIFKKE a recorded DR/DR AA greater than or equal to 0.9?
// result yes (1)

// query Test whether the molecule 126H, 72A (protein, listed as Rattus norvegicus, PEPTIDE (1)...(131) wild-type rat intestinal fatty acid binding protein) AFDGTWKVDRNENYEKFMEKMGINVVKRKLGAHDNLKLTITQEGNKFTVKESSNFRNIDVVFELGVDFAYSAADGTELTGTWTMEGNKLVGKFKRVDNGKELIAVREISGNELIQTYTYEGVEAKHIFKKE records DR/DR AA of 0.9 or higher.
// result no (0)
